biological target: O00560; test: holdup assay; set-up: key: below the threshold = too weak to quantify, mostly under pKd 3.1 to 4; details: plain residues with an end cap or a label only (N-terminal biotin on a linker: ttds)
Measure Name: pKd

These solved cases illustrate the format of a correct answer.
Binder | Measure Name | Reported
PKTPPTDTSV [KIR3DL3, Q8N743] | pKd | below the threshold
RSLEEEESQL [GRASP, Q7Z6J2] | pKd | below the threshold
SVWLRKETRV [CYSLTR2, Q9NS75] | pKd | below the threshold
STLTIFETAL [ABCC4, O15439] | pKd | below the threshold

From here, focus on the item given below.
Query: Quick check: pKd of QSARYRDTEL [TJP2, Q9UDY2] ?
Response: below the threshold
